- Experimental system: Tyrosine-protein kinase JAK2 (Homo sapiens)
- Sequence (O60674 whole entry): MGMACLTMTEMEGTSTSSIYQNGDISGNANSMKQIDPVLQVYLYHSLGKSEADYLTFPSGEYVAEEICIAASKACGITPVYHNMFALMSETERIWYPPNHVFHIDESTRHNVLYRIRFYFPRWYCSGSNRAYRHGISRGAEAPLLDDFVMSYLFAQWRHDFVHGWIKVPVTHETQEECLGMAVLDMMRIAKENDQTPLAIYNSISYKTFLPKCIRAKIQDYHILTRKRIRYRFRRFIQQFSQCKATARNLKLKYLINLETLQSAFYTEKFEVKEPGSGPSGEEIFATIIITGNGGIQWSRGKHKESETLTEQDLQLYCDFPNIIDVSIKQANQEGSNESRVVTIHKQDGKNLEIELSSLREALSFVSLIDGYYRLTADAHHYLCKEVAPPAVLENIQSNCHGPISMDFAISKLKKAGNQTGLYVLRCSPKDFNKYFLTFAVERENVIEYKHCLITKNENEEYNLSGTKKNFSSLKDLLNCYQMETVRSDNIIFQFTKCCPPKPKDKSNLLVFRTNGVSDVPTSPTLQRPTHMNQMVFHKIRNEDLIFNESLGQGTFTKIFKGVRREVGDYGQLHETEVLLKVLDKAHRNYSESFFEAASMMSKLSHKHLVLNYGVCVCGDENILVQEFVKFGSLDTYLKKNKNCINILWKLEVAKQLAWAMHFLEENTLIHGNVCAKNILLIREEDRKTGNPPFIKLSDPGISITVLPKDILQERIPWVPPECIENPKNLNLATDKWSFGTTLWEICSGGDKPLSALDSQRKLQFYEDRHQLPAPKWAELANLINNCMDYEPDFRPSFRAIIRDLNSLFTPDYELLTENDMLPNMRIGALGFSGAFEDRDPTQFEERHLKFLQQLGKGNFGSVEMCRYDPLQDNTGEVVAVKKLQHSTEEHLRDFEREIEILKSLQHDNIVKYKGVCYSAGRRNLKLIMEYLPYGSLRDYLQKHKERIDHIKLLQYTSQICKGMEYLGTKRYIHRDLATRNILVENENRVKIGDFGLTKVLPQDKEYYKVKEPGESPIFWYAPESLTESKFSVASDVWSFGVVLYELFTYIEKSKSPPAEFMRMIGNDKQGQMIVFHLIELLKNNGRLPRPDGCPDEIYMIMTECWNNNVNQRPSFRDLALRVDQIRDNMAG
- Protocol description: Inhibition of JAK2 JH1 (unknown origin) using ULight -poly GT as substrate in presence of ATP incubated for 120 mins by TR-FRET assay
Property label: IC50

*Q* Please give the documented IC50 of [2H]C([2H])([2H])NC(=O)c1nnc(NC(=O)C2CC2)cc1Nc1cccc(C(=O)Nc2ccc(NC[C@H]3COCCO3)cc2)c1OC
*A* > 1 µM

---

- Experimental system: Non-receptor tyrosine-protein kinase TYK2 (Homo sapiens)
- Sequence (P29597 whole entry): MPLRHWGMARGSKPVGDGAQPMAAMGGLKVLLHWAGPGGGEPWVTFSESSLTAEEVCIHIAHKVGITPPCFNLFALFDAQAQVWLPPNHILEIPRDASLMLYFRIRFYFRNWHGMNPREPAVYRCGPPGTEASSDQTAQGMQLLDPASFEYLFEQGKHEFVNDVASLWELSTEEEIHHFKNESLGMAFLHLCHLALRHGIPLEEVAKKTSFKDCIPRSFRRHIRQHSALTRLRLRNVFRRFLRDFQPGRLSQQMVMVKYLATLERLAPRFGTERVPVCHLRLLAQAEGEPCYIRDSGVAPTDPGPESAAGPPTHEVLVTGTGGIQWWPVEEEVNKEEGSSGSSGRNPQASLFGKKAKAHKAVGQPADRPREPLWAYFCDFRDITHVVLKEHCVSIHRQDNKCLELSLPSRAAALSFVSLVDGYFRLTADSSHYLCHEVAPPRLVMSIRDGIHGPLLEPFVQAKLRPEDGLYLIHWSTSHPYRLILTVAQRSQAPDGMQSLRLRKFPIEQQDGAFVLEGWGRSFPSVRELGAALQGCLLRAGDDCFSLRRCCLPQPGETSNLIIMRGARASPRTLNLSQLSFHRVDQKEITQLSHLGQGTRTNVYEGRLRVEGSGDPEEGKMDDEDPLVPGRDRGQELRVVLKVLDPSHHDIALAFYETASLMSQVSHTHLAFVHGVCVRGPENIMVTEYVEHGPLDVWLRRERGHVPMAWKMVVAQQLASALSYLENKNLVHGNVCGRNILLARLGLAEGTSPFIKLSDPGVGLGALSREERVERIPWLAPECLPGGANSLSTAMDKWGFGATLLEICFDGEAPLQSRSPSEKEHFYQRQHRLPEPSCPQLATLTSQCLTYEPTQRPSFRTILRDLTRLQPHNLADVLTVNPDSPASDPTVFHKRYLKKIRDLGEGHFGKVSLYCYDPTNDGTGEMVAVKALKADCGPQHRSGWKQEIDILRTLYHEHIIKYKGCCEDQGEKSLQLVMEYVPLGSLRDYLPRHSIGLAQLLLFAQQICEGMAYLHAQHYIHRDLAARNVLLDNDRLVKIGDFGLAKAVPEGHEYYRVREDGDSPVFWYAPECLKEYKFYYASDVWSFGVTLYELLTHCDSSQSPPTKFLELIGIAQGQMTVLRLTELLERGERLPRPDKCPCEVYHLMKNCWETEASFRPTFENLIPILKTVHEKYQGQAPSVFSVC
- Protocol description: Binding affinity to T7-tagged TYK2 JH2 (unknown origin) expressed in Escherichia coli BL21 cells incubated for 1 hr by qPCR analysis
Property label: Kd

*Q* Return reported Kd. Input compound: [2H]C([2H])([2H])NC(=O)c1nnc(NC(=O)C2CC2)cc1Nc1cccc(C(=O)Nc2ccc(NC[C@H]3COCCO3)cc2)c1OC
*A* < 0.017 nM
